Target System: chimeric BTLA of humanised-BTLA mice (human extracellular region, murine transmembrane and signaling … (human; mouse, UniProt Q7TSA3 184-306, limits assumed)
Sequence (Q7TSA3 other isoform, or with tags, fused parts or gaps mutant limits assumed): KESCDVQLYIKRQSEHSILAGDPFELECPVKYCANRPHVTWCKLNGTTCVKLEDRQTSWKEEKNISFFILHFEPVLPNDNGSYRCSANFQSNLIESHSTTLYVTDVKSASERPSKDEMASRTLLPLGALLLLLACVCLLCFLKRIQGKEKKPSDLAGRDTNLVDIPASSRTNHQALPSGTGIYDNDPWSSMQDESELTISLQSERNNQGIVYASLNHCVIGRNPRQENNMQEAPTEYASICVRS
Method Summary: cell-based or functional assay
Record form. Attribute: AntiCD3/CD28 (CD4 T cell proliferation) repeat 2, % inhibition. Fill in for each entry.
Express your answer in %, writing the number without its unit.

Query block: Return value of AntiCD3/CD28 (CD4 T cell proliferation) repeat 2, % inhibition for input 24H7 (antibody, IgG1, V domains shown) VH: QVQLQQSGAELVRPGASVTLSCKASGYTFTDYEIHWVKQTLVHGLEWIGPIDPDTGNTAYNQNLKGKAILTADKSSSTAYMELRSLTSEDSAVYYCTRGGYDSDWGFAYWGQGTLVTVSA VL: DIVMTQATPSVPVTPGESVSISCRSSKSLLHSNGNTFLFWFLQRPGQSPQLLIYRMSDLASGVPDRFSGSGSGTAFTLRISRVEAEDVGIYYCMQHLEYPFTFGSGTKLEIK , no commentary.
Result block: 23

Query block: Supply measured AntiCD3/CD28 (CD4 T cell proliferation) repeat 2, % inhibition of 8B4 (antibody, IgG1, V domains shown) VH: QVQLQQSGAELARPGASVKLPCKASGYTFTSYGISWVKQRTGQGLEWIGEIYPRSGTTYYNEKFKGKATLTADKSSSTAYMELRSLTSEDSAVYFCARRISSGSGVDYWGQGTTLTVSS VL: DIQMTQTTSSLSASLGDRVTISCSASQGISNYLNWYQQKPDGTVKLLIYYTSSLHSGVPSRFSGSGSGTDYSLTISNLEPEDIATYYCQQYSELPWTFGGGTKLEIK in your reply.
Result block: 4

Query block: Check the records and state AntiCD3/CD28 (CD4 T cell proliferation) repeat 2, % inhibition for 12F11 (antibody, IgG1, V domains shown) VH: EVQLQQSGPELVKPGASVKISCKASGYTFTDYYMNWVKQSHGKSLEWIGDINPNNGGTSYNQKFKGKATLTVDKSSSTAYMELRSLTSEDSAVYYCARWRQLRSDYWGQGTTLTVSS VL: DIQMTQSPASQSASLGESVTITCLASQTIGTWLAWYQQKPGKSPQLLIYAATSLADGVPSRFSGSGSGTKFSFKISSLQAEDFVSYYCQQLYSTPLTFGAGTKLELK
Result block: 9

Every entry's value here was drawn from patent US20220177589A1.
